- TEST_SYSTEM: NK-1 (Homo sapiens, UniProt P25103)
- Construct: 30 ul/well of a 2×U373 membrane preparation; endogenous in cells; host or cells: U373 cells (crude membrane preparation)
- Sequence (P25103 whole entry): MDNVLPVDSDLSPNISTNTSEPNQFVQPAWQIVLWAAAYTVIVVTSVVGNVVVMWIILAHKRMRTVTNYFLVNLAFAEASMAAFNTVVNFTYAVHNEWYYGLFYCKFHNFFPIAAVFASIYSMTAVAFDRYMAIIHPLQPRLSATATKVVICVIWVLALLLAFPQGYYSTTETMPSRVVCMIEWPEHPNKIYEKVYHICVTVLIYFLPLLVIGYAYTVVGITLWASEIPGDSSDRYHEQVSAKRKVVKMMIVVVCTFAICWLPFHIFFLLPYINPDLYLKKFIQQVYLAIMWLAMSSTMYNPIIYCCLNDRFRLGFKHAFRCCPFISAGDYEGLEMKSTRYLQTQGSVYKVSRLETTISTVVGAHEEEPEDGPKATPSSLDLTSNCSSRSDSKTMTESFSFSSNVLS
- ASSAY_PROTOCOL: NK1 radioligand binding assay
- MEASUREMENT_SETUP: U373 membrane preparation, [125I]Substance P; Table 1a, single enantiomers
pIC50: −log10 of the molar value.
Consider the following molecules; for each one, report its pIC50.

Field request: pIC50 | item: CC(OCC1(c2ccccc2)CCN(C)CC1)c1cc(C(F)(F)F)cc2cccnc12 (single isomer, unassigned) [Example 72] < 6.52

Record request: pIC50 value, item CC(OCC1(c2ccc(F)cc2)CCN(C)CC1)c1cc(Br)cc2cccnc12 (single isomer, unassigned) [Example 79] 7.00 to 11.00

Give the measured pIC50 of CC(OCC1(c2ccccc2)CCN(C)CC1)c1cc(C(F)(F)F)cc2cccnc12 (single isomer, unassigned) [Example 74] . 7.00 to 11.00
